testReadout: melting point

| compound | experimentalValue |
| --- | --- |
| CCCN1NCc2c(C3C(=O)Nc4ccc(F)cc43)ncnc21 (centres undefined) | 288 to 292 °C |
| CC(CCCN(C)C)C1CC(=O)C2=C3CCC4CC(O)CCC4(C)C3CCC21C (centres undefined) | 160 to 162 °C |
| COc1cc(C(C)=O)ccc1OCCCN1CCC(=C(c2ccc(Cl)cc2)c2ccc(Cl)cc2)CC1 | 143 to 144 °C |
| CCOC(=O)C(C)(C)CCS(N)(=O)=O | 93 to 94 °C |

---

testReadout: melting point

| molecule | experimentalValue |
| --- | --- |
| N#CC(C#N)=CN(N=C(C#N)C#N)c1ccc(Cl)cc1 | 161 to 162 °C |
| CC(C)(Oc1ccc(CCCOc2ccc(-c3ccccc3)cc2)cc1)C(=O)O | 130 to 133 °C |
| O=C1C2=C(CCCC2)C(=O)N1c1c(F)cc(Cl)c2nc(Cl)sc12 | 139 to 141 °C |
| CC#CCOc1ccc(S(=O)(=O)NC2(C(=O)OC)CCCC2)cc1 | 81 to 83 °C |
| N#Cc1ccc(OCCO)c(C(N)=O)c1 | 144 to 146 °C |
| CC(C)Nc1nc2cc(C#N)ccc2[nH]1 | 185 to 190 °C |
| CCOC(=O)Cc1ccc(OCc2nc(-c3ccccc3)oc2C)c(OC)c1 | 86 to 87 °C |
| C#CCN(C(=O)c1cnccc1C(F)(F)F)S(=O)(=O)c1cccc(C)c1 | 111 to 114 °C |
| C#CCOCc1c(C)nc2c(OCc3ccccc3C#N)cccn12 | 144 °C |
| C[C@]12C[C@H](c3ccc(OCCCCCS(=O)CCCC(F)(F)C(F)(F)F)cc3)[C@@H]3c4ccc(OC5CCCC5)cc4CC[C@H]3[C@@H]1CC[C@@H]2O (stereo partly drawn) | 189 °C |
| ON=C(Cl)c1ccc(F)cc1 | 74.5 to 75 °C |
| CCC(CC)c1ccc(C(F)(F)F)c2nc(Oc3c(C)cc(Cl)cc3Cl)n(C)c12 | 149 to 151 °C |
| CSc1nc(C)nc(N)n1 | 161 to 163 °C |
| O=C(NCC(F)(F)F)c1ccc(C2=NOC(c3cc(Cl)cc(Cl)c3)(C(F)(F)F)C2)cc1 (stereo not drawn) | 94 to 96 °C |
| CCCN1CC=C(c2ccc(Cl)cc2)C(C(=O)OCc2ccccc2)C1 (stereo not drawn) | 75 to 76.5 °C |
| COc1ccc2cc3ncc(C#N)c(Cl)c3cc2c1 | 242 to 243 °C |
| O=S(=O)(On1nnc2ccc(Cl)cc21)c1ccc(Cl)cc1 | 125 to 127 °C |
| CCOCc1nc2c(N)nc3c(c2n1CCCCS(=O)(=O)NC)CCCC3 | 188 to 192 °C |

---

Consider the following compounds and their measured melting point readings.
testReadout: melting point

| compound | experimentalValue |
| --- | --- |
| CC(=O)CCc1ccc2ccccc2c1 | 56 to 58 °C |
| Nc1nc(N)c2ncn(C3OC(CO)C(O)C3O)c2n1 (stereo not drawn) | 238 to 240 °C |
| N#CCc1cc(CO)cs1 | 45 to 47 °C |
| CCC(C)c1nn(-c2ccc(C(F)(F)F)cn2)cc1CCCO (stereo not drawn) | 72 to 73 °C |
| O=c1[nH]c(=S)[nH]c2ccnn12 | 295 °C |
| O=C(OCN1C(=O)c2ccccc2S1(=O)=O)c1c(Cl)cncc1Cl | 159 to 160 °C |
| COc1cc(C(C)C)c2c(c1)S(=O)(=O)N(COc1cc(C#N)nn1-c1ccc(Cl)cc1Cl)C2=O | 183 to 184 °C |
| C#CCCCCC12SCC(CCC)(CS1)CS2 | 88 °C |
| O=C(Nc1ccc(OCCCCl)c2ccccc12)c1cc(F)cc(N2CCCCC2)c1 | 181 to 182 °C |
| Cc1cc(C2=NN(C(=O)C=CCC(=O)O)C(C)Cc3cc4c(cc32)OCO4)ccc1[N+](=O)[O-] (stereo not drawn) | 158 to 160 °C |
| COC1=CC=CC(OCCCN2CCN(c3n[nH]c4ccccc34)CC2)(C(C)=O)C1 (stereo not drawn) | 155 to 157 °C |
| CCOC(=O)C1=CC(C2CC2)c2nc3cc(F)c(F)cc3nc2C1=O (stereo not drawn) | 230 °C |
| CN(C)C(=O)C(Br)Cn1ccc(-c2ccccc2)n1 (stereo not drawn) | 93 to 94 °C |
| O=C1c2ccccc2C(=O)N1CCSCCc1ccco1 | 53 to 55 °C |
| NS(=O)(=O)c1ccc(-c2cccc(-c3nc(-c4ccc(C(F)(F)F)cc4)cc(C(F)F)n3)c2)s1 | 240 °C |
| CCOCCN(C(=O)N(CCCl)N=O)C1(O)C(CO)OC(OC2CCCCC2)C1O (stereo not drawn) | 62 to 64 °C |
| Cc1cc(C)c(C(=O)c2ccc(Cl)cc2)c(C)c1 | 65.5 to 66.5 °C |
| CC(=O)Nc1nc(-c2ccc(S(C)=O)cc2)cs1 (stereo not drawn) | 274 °C |

Data provenance: a melting point compilation (Tetko et al.; mined from patent text by program, amines drawn as free bases though some values may be those of a salt)
